READOUT_KIND: melting point

O=C(Nc1cccc(F)c1)NC1CCN(S(=O)(=O)c2ccccc2)CC1	186 to 188 °C
COc1ccccc1OCC(O)CN1CCCC(Cn2c(=O)[nH]c3ccc(Cl)cc32)C1 (stereo unspecified)	167 °C
COc1ccc(C(=O)NCc2ccccc2)c2c1oc1ccc(N)cc12	228 °C
NS(=O)(=O)c1ccc(CCCCCO)s1	65 to 67 °C
COc1c(Cl)nc(Cl)nc1-c1ccco1	105 to 107 °C

**Q:** Give the measured melting point of COc1cc(CCCO)ccc1OCc1nc(-c2ccco2)oc1C .
**A:** 99 to 100 °C

**Q:** Give the measured melting point of OCCOc1cn(-c2ccc(F)cc2)c2ccc(Cl)cc12 .
**A:** 118 to 120 °C

**Q:** Give the measured melting point of CCC(C)CNC(=O)c1ccc2cccc(Cc3ccc(C(=O)O)cc3OC)c2c1 (stereo unspecified) .
**A:** 220 to 221 °C

====

# reported melting point; entries follow

The cases that follow already have their melting point on record.
Cc1nc(N)nc(N)c1-c1ccc(F)cc1Cl	238 °C
CCOC1=Nc2c(C)cccc2Nc2ncccc21	135 to 136 °C
Nc1c(C(=O)c2ccccc2O)oc2ccc(Cl)cc12	208 to 210 °C

**Q:** Give the measured melting point of CN(CC(=O)c1cccn1Cc1ccc(Cl)cc1[N+](=O)[O-])Cc1ccccc1 .
**A:** 90 to 93 °C

**Q:** Give the measured melting point of OC[C@H]1C2CCC(C2)[C@@H]1CO .
**A:** 58 °C

**Q:** Give the measured melting point of CCCc1nn(C)c(C(N)=O)c1NC(=O)c1cc2cccc(OCC)c2o1 .
**A:** 219 to 221 °C

**Q:** Give the measured melting point of CCOC(=O)c1cn2c(cc(OC(C)C)c3ccc(OC)cc32)n1 .
**A:** 117 to 118 °C

====

# reported melting point; entries follow

CCN1C(=O)C(C(=O)Nc2ccc(F)cc2F)c2cc(C3(C)OCCO3)ccc21 (stereo not given)	166 to 170 °C
O=C(O)CCN1C(=O)c2cccc(NC(=O)c3ccc(Cl)s3)c2C1=O	194 °C
CCOCc1nc2c(N)nc3ccccc3c2n1CCCCCC(=O)N1CCOCC1	160 to 162 °C
Cc1cc(C#N)nc(-c2ccc([N+](=O)[O-])cc2)c1	146 to 156 °C
O=c1cc(C(F)(F)F)cnn1-c1c(F)cc(Cl)c(O)c1[N+](=O)[O-]	146 to 148 °C
[O-][N+]1=C(c2ccccc2Cl)c2ccccc2C=CC1	115 to 116 °C

**Q:** Give the measured melting point of CC(C)(C)OC(=O)N1CC2CN(Cc3ccccc3)CC(C1)O2 .
**A:** 100 to 102 °C

**Q:** Give the measured melting point of CC1(C)CC(=C[C@H]2[C@H](C(=O)O)C2(C)C)CC(C)(C)C1 (relative stereo) .
**A:** 116 °C

**Q:** Give the measured melting point of O=C1Cc2cccc(Oc3ccc4ccccc4c3)c2N1 .
**A:** 195 to 197 °C

**Q:** Give the measured melting point of Cc1cc(OCc2ccccc2)ccc1CC#N .
**A:** 51 to 52 °C

====

# reported melting point; entries follow

COc1cc2c(c3c1OC(C)(C)C3)C(c1cccc(C(=O)N[C@H]3CNC3=O)c1)=NC(C)(C)C2	154 to 157 °C
CCCCC(CC)COc1cc2c3c(c4cc(OCC(CC)CCCC)c(OCC(CC)CCCC)cc4c2cc1OCC(CC)CCCC)C(=O)C=CC3=O (centres undefined)	105 to 107 °C

**Q:** Give the measured melting point of CC(C)C1NC(NC(=O)CCC2CCCCC2)C(=O)N(C)c2ccccc21 (centres undefined) .
**A:** 114 to 115 °C

**Q:** Give the measured melting point of CC1(c2ccc(Cl)cc2)Cc2cc(O)c(Cl)c(Cl)c2C1=O (centres undefined) .
**A:** 211 to 213 °C

**Q:** Give the measured melting point of NCc1ccc2c(c1)N(C1CCN(CCc3ccc(F)cc3)CC1)CC2 .
**A:** 83 to 85 °C

**Q:** Give the measured melting point of Cc1c(NC(=O)CC(C)(C)C)c(C)c2c(c1-c1ccc(N(C)C)nc1)OCC2c1ccc(C(C)C)cc1 (centres undefined) .
**A:** 217 to 220 °C

**Q:** Give the measured melting point of CCCCC(=O)Nc1ccc(Cl)c(-n2nc(CC)n(Cc3ccc(-c4ccccc4S(=O)(=O)NC(=O)OC(C)(C)C)cc3F)c2=O)c1 .
**A:** 143 to 145 °C

**Q:** Give the measured melting point of Nc1cccc2cccc(S)c12 .
**A:** 69 to 72 °C

====

# reported melting point; entries follow

CCOC(=O)CSc1nc2cc([N+](=O)[O-])ccc2[nH]1	114 °C

**Q:** Give the measured melting point of CCOC(=O)CN1CCC(=C2c3ccc(Cl)cc3CCc3cccnc32)CC1 .
**A:** 80 to 82 °C

**Q:** Give the measured melting point of COc1ccc2cc(-c3cnc(-c4ccccc4)o3)ccc2c1 .
**A:** 149 to 151 °C

**Q:** Give the measured melting point of Cc1ccc(OCCOc2ccc(C(=O)C(=O)O)cc2)cc1 .
**A:** 135 to 136 °C

**Q:** Give the measured melting point of Cc1cccc(OCCOc2cccc(C)c2)c1 .
**A:** 98 °C

**Q:** Give the measured melting point of CN(C)N=C(CCC(=O)O)c1ccc(-c2ccc(Cl)cc2)cc1 .
**A:** 158 to 160 °C

====

# reported melting point; entries follow

Cc1c2n(c(=O)c3cc(OC(=O)CN)cc(OC(=O)CN)c13)CCCC2	163 to 164 °C
CCCCCCC(C)(C)c1cc(OC)c(C2C(=O)[C@]3(C)CC[C@H]2C3(C)C)c(OC)c1 (some centres undefined)	64 to 65 °C
Cc1cc(CN(Cc2cccs2)c2sc(-c3ccc(C(F)(F)F)cc3)nc2C)ccc1OC(C)(C)C(=O)O	100 °C
COc1ccc(CS(=O)(=O)c2cc3ccccc3oc2=O)cc1	194 to 195 °C

**Q:** Give the measured melting point of CS(=O)(=O)ON=C(Cl)c1ccc(Cl)c(Cl)c1 .
**A:** 73 to 75 °C

**Q:** Give the measured melting point of Cc1ccc(NC(=O)c2ccc([N+](=O)[O-])cc2)cc1 .
**A:** 140 to 146 °C

**Q:** Give the measured melting point of O=C(OC1C(O)COC(Oc2ccc([N+](=O)[O-])cc2)C1OC(=O)c1ccccc1)c1ccccc1 (centres undefined) .
**A:** 150 to 151 °C

**Q:** Give the measured melting point of NS(=O)(=O)c1cc(C(=O)O)cc(NCc2ccco2)c1-c1ccccc1 .
**A:** 167 to 169 °C

**Q:** Give the measured melting point of CN(C)C=Nc1n[nH]c2ncnc(Nc3cccc(Cl)c3)c12 .
**A:** 243 to 245 °C

**Q:** Give the measured melting point of CN(Cc1ccccc1)C1Cc2cccc3[nH]c(=O)n(c23)C1 (centres undefined) .
**A:** 145 to 149 °C

**Q:** Give the measured melting point of CCN(CC)C(=O)c1ccc(C)c(-c2nc(NC3CCN(C)CC3)nc3c2CNC(=O)N3c2c(F)cccc2F)c1 .
**A:** 165 to 169 °C

**Q:** Give the measured melting point of CC(C)CC(NC(=O)Cc1cccc2ccccc12)C(=O)NC(Cc1ccccc1)C(=O)CSCc1ccco1 (centres undefined) .
**A:** 143 to 146 °C

**Q:** Give the measured melting point of CC12CCC3C(CC=C4CC(O)CCC43CSSCCO)C1CCC2=O (centres undefined) .
**A:** 129 to 130 °C

**Q:** Give the measured melting point of Cc1oc2c(C)c(C)c(NCc3ccc(F)cc3)c(C)c2c1-c1ccc(F)cc1 .
**A:** 107 to 109 °C

====

READOUT_KIND: melting point

CON=C1CN(c2c(F)cc3c(=O)c(C(=O)O)cn(C4CC4)c3c2Cl)CC12CNC2	220 to 221 °C
c1cnn(-c2ccnc(-n3cccn3)n2)c1	152 to 153 °C

Proceed to the following item.
**Q:** Give the measured melting point of COc1cccc2c1c(N1CCOCC1)nc1c(-c3noc(C4CC4)n3)ncn12 .
**A:** 227 to 228 °C

====

# reported melting point; entries follow

CCOC(=O)C(=NO)c1ccc(OC)cc1	81 to 82 °C
Brc1ccc2[nH]c3cnc(-c4ccon4)cc3c2c1	292 to 293 °C
N#Cc1c(Cl)c(C(F)(F)F)n(CCl)c1-c1ccc(Cl)cc1	107 to 108 °C
COc1ccc2nc(-c3ccc(OC)c(F)c3)cc(Cl)c2c1	112 to 116 °C
CC(C)(C)OC(=O)NC1CCc2ccccc2NC1=O (stereo unspecified)	199 to 201 °C

Proceed to the following item.
**Q:** Give the measured melting point of NC(=O)COc1ccc(CN2C(=O)C3(COc4cc5c(cc43)OCCO5)c3ccccc32)cc1 (stereo unspecified) .
**A:** 225 to 227 °C
